Assay: Detergency against keratotic plugs after washing with water (collapse state)
Parameters: species or system human
Settings: keratotic plugs kept in contact with water for 1 minute after contact with sample
measurement-type: collapse of keratotic plugs on contact with water after the sample (in words)

O=P([O-])([O-])O.[Na+].[Na+] [disodium hydrogen phosphate] ... did not progress
O=P([O-])([O-])[O-].[Na+].[Na+].[Na+] [trisodium phosphate] ... did not progress
O=C([O-])O.[Na+] [sodium hydrogen carbonate] ... did not progress
